target: SHP2-C SH2; assay: SH2 binding enrichment of the phosphorylated peptide, bacterial display (enrichment ratio); higher = better substrate or ligand; peptides without Tyr show the background
TEST_READOUT: SH2 binding enrichment

INSERT INTO results (item_sequence, test_readout, value) VALUES
  ('ERSMSYCDESR [SMG1_Y143_S144C]', 'SH2 binding enrichment', 1.28),
  ('EYFENYIEELK [PARP4_Y218]', 'SH2 binding enrichment', 0.785),
  ('ISIFHYAKGQP [MPZ_Y82]', 'SH2 binding enrichment', 0.739),
  ('MEFAKYGSLRG [RET_Y809_V804M_YF]', 'SH2 binding enrichment', 0.729),
  ('QAIDEYEKWLE [MAP9_Y603_N601D]', 'SH2 binding enrichment', 0.805),
  ('GPGLVYGVANK [FLNB_Y1833]', 'SH2 binding enrichment', 0.643),
  ('KPLMPCMRYSR [SMARCE1_Y73_Y73C]', 'SH2 binding enrichment', 0.558),
  ('FECKWYIPLTD [BCR_Y756_D752E_YF]', 'SH2 binding enrichment', 0.817),
  ('YTHSDYQYGQR [PKP2_Y166_S169G]', 'SH2 binding enrichment', 0.885),
  ('RTCSSYAIEKI [PARP15_Y520]', 'SH2 binding enrichment', 0.855);

[1] TPSGNYVACGG [GNB1_Y111_A106T]
[2] FTGDIYSNSNL [LZTR1_Y141_YF]
[3] EFGFRYELVQF [UGGT2_Y1289_Y1285F_YF]
Query block: Endpoint returns the given sequences ordered by ascending SH2 binding enrichment. Use the labels to give the ranking in the order requested.
Result block: 2, 3, 1

----------
system: Fer (mouse); assay: phosphorylation enrichment, bacterial display (enrichment ratio); higher = better substrate or ligand; peptides without Tyr show the background
TEST_READOUT: phosphorylation enrichment
Answer with a number only.

Completed entries (count: 2):
INSERT INTO measurements (item_sequence, value) VALUES
  ('PSDPSYEDTRE [BMPR1A_Y467_M470T]', 0.894),
  ('SAQHHYESLQT [BIN1_Y157_R154Q]', 0.703);

Query block: Suppose we examine the sequence TVMGLYQKSSL [MYH7_Y609_V606M] ; what phosphorylation enrichment value has been reported?
Result block: 0.527

Query block: Note, next up: RHTRSYDFMEG [FGF7_Y56_YF]
Result block: 0.794

Query block: Note, next up: QEIATYRRLQE [KRT14_Y415_L419Q]
Result block: 0.506

Query block: Note, next up: RAFRHYLLKQK [SCN2A_Y1919_R1918H_YF]
Result block: 1.49

Query block: Note, next up: DLLMQYPKAQG [FAM83C_Y600]
Result block: 0.452

Query block: Note, next up: FGYPGYQCKHY [TIMP3_Y177_S179C]
Result block: 0.374

----------
molecular target: SHP2-C SH2; assay: SH2 binding enrichment of the phosphorylated peptide, bacterial display (enrichment ratio); higher = better substrate or ligand; peptides without Tyr show the background
TEST_READOUT: SH2 binding enrichment

INSERT INTO assay_data (item_sequence, value) VALUES
  ('GRKTLYSFFSP [UNG_Y8_Q4R]', 0.978),
  ('SPDMLYQFLKQ [RPAP3_Y567_YF]', 0.683);

[P] KVVNEYVTKGQ [MYH7_Y410_G407V]
[Q] LLVVLYKYRCF [PSEN1_Y154_Y159F]
[R] YRRITYHNWRH [PDE6B_Y556]
Query block: Rank order required: SH2 binding enrichment, descending. Use the labels to give the ranking in the order requested.
Result block: Q, P, R
(Q: 1.61, P: 0.798, R: 0.553)

[A] FDSPFYRDSLP [TSC1_Y508]
[B] RHPFFFAPELL [ALB_Y174_Y174F_YF]
Query block: // pick larger SH2 binding enrichment from pair: A vs B // return label of chosen record
Result block: B
(B: 1.44, A: 0.652)

[I] NVVVPYEPPEV [TP53_Y220_S215N]
[II] GSSEGYLHMVH [NIPBL_Y247_D246G]
Query block: For the pair I and II , which entry has the numerically smaller recorded SH2 binding enrichment? // return label of chosen record
Result block: I
(I: 0.607, II: 0.9)

----------
target: EPHB1 (UniProt P54762); experiment: phosphorylation enrichment, bacterial display (enrichment ratio); higher = better substrate or ligand; peptides without Tyr show the background
Sequence (P54762 whole entry, looked up): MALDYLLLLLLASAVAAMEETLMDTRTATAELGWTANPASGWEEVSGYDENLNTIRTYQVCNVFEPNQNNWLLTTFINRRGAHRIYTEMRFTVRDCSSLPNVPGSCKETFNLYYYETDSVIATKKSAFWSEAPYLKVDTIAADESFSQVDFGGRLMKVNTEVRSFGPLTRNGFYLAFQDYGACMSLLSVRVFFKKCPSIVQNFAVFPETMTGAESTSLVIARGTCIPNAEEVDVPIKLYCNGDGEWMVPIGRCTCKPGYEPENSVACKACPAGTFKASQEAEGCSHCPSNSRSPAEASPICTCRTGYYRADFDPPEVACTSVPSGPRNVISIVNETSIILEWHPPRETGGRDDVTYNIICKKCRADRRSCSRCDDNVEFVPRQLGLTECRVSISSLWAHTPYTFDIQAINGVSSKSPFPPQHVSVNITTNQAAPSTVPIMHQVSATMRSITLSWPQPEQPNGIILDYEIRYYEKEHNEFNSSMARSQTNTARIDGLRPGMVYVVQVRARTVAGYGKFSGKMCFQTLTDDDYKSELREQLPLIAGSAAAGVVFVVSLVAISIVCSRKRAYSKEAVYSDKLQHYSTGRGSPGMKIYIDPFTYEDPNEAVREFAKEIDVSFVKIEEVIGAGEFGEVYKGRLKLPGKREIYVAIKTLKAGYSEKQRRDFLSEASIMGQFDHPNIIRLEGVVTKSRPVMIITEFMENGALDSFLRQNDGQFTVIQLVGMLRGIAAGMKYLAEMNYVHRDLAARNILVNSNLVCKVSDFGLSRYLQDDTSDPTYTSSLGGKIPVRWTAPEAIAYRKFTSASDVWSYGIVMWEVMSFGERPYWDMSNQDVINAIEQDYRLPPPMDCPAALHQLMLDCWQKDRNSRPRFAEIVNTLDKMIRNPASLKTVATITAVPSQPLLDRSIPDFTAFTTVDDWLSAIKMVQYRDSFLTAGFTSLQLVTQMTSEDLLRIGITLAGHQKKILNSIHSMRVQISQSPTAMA
TEST_READOUT: phosphorylation enrichment
Answer with a number only.

Completed entries (count: 5):
INSERT INTO assay_data (item_sequence, test_readout, value) VALUES
  ('QLATEYVFSDF [PANX1_Y10]', 'phosphorylation enrichment', 0.615),
  ('HVIKFYGACSQ [RET_Y791_L790F]', 'phosphorylation enrichment', 0.956),
  ('VHSGTYQVTVR [MYBPC3_Y1043]', 'phosphorylation enrichment', 0.521),
  ('LIHTKYPQLLP [AHCY_Y143]', 'phosphorylation enrichment', 0.642),
  ('LANNEYFFRVC', 'phosphorylation enrichment', 0.733);

Query block: For the record PHMQTYEVDPN [SDHB_Y61_L65P] , what value of phosphorylation enrichment is listed for EPHB1 (UniProt P54762)?
Result block: 0.782

Query block: Note, next up: GGPTYYIDTNA [ACTL6A_Y69]
Result block: 0.698

Query block: Note, next up: MWGSDYVHLSR [MAP3K4_Y582_Q584H]
Result block: 3.2

----------
target: Jak2 (UniProt O60674); assay: phosphorylation enrichment, bacterial display (enrichment ratio); higher = better substrate or ligand; peptides without Tyr show the background
Sequence (O60674 whole entry, looked up): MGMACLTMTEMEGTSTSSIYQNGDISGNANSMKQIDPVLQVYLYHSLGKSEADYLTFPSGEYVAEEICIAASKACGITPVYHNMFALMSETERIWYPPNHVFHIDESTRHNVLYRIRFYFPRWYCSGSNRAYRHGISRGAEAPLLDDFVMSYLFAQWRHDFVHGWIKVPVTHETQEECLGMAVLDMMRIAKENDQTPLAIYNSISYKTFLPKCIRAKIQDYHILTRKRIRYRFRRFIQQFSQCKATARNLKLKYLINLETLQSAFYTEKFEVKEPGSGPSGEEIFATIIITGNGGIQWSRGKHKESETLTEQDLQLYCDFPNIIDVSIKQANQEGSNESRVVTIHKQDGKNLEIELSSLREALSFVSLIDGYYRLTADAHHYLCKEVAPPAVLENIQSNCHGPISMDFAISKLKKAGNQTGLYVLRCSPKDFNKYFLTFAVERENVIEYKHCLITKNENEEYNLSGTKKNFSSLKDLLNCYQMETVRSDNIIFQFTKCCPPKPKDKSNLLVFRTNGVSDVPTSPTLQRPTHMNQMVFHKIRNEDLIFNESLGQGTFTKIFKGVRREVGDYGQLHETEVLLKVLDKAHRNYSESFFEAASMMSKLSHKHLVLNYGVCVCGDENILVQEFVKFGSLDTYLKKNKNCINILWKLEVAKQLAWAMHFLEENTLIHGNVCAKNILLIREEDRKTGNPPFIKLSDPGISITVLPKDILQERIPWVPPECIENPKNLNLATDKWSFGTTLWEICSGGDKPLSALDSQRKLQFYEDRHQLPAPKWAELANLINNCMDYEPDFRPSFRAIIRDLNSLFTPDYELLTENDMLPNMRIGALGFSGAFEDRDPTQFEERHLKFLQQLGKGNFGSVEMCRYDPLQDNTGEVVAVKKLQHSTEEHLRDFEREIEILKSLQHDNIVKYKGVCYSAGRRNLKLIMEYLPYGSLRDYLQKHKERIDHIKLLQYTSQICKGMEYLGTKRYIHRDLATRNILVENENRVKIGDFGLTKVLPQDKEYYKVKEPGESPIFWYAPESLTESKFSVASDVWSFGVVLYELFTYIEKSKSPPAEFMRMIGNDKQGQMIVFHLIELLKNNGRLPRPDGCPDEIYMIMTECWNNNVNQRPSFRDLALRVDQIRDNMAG
# key: entry, value: phosphorylation enrichment
Answer with a number only.

Completed entries (count: 5):
INSERT INTO results (item_sequence, test_readout, value) VALUES
  ('FENGEYIIRQG [PRKG1_Y247_YF]', 'phosphorylation enrichment', 0.92),
  ('RLQAAYNLVKR [PFKM_Y103_R100Q]', 'phosphorylation enrichment', 0.866),
  ('KSPGEYVNIEF [IRS1_Y896]', 'phosphorylation enrichment', 0.623),
  ('PVKAAYQKVVA [HBB_Y131_Q128K]', 'phosphorylation enrichment', 0.95),
  ('EEQFFYEKAIL [BCCIP_Y257_E254Q]', 'phosphorylation enrichment', 0.828);

Query block: For the record DFEGLYQEGGG [TMEM159_Y159_E154D] , what value of phosphorylation enrichment is listed for Jak2 (UniProt O60674)?
Result block: 0.88

Query block: Note, next up: KVVNEYVTKGQ [MYH7_Y410_G407V]
Result block: 0.53

Query block: Note, next up: LKGQVYILGGE [ASS1_Y359_R363G]
Result block: 1.62

Query block: Note, next up: WDLPEYSYKDP [ITGA3_Y237_S235P]
Result block: 1.18

Query block: Note, next up: EEGRVYVFRLS [ITGAE_Y549_YF]
Result block: 1.14

Query block: Note, next up: AGLVQYFMEHH [PTPN11_Y80_E76G_YF]
Result block: 0.962

Query block: Note, next up: VRFMAYTDETF [F8_Y450]
Result block: 1.2

Query block: Note, next up: AKVKPYINGTS [IBTK_Y1064_V1065I]
Result block: 0.369

Query block: Note, next up: HSLLQYGGSAN [ANK1_Y624_R619H]
Result block: 0.394

----------
molecular target: c-Src SH2; test: SH2 binding enrichment of the phosphorylated peptide, bacterial display (enrichment ratio); higher = better substrate or ligand; peptides without Tyr show the background
TEST_READOUT: SH2 binding enrichment

INSERT INTO measurements (item_sequence, target_of_assay, value) VALUES
  ('KMGNIYRTEFG [MRPL3_Y265_YF]', 'c-Src SH2', 0.485),
  ('AFAEVYEGQVS [ALK_Y1131_G1128A]', 'c-Src SH2', 0.506),
  ('DTFDPYLDVAL [USP36_Y268_YF]', 'c-Src SH2', 0.414),
  ('EVDETYVPKEF [ALB_Y521]', 'c-Src SH2', 0.498),
  ('GTGTAYLCGVK [ALPL_Y117_A114G]', 'c-Src SH2', 0.543);

[1] FQCLRYIKQLG [SAMHD1_Y146_R143C]
[2] VDFQPYRKHKF [TEX37_Y28_YF]
Query block: For the pair 1 and 2 , which entry has the numerically smaller recorded SH2 binding enrichment? // return label of chosen record
Result block: 1
(1: 0.528, 2: 0.844)

----------
molecular target: EPHB2 (UniProt P29323); test: phosphorylation enrichment, bacterial display (enrichment ratio); higher = better substrate or ligand; peptides without Tyr show the background
Sequence (P29323 whole entry, looked up): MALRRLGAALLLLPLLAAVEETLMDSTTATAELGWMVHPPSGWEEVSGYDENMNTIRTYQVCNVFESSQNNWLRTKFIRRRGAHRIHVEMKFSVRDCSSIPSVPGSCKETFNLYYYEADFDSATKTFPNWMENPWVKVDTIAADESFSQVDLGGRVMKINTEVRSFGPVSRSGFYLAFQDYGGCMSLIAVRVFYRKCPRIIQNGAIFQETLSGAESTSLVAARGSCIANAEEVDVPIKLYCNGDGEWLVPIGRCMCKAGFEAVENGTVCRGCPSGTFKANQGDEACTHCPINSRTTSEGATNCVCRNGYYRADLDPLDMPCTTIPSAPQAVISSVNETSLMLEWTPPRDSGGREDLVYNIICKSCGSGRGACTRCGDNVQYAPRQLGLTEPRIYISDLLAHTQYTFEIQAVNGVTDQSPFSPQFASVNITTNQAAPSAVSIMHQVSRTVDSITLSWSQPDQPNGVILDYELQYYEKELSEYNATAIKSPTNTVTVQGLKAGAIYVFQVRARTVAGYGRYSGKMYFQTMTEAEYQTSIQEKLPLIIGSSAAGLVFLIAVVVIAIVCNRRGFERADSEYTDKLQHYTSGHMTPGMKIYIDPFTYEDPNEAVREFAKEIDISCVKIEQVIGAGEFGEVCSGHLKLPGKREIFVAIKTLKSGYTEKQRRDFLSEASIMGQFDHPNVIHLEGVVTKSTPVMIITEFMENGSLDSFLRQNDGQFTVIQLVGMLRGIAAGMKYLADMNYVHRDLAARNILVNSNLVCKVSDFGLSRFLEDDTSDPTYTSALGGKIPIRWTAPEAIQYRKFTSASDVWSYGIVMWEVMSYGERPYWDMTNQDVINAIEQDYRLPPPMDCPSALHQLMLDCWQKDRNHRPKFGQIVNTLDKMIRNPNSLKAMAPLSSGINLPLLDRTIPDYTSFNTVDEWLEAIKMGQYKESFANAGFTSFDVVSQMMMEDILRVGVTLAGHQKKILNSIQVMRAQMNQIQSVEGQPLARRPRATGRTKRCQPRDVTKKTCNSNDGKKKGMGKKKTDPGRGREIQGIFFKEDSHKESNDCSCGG
TEST_READOUT: phosphorylation enrichment
Answer with a number only.

INSERT INTO assay_data (item_sequence, test_readout, value) VALUES
  ('WQQQSYLGSGI [CTNNB1_Y30_D32G]', 'phosphorylation enrichment', 0.469),
  ('MACDRYVAICS [OR8D4_Y123]', 'phosphorylation enrichment', 0.592),
  ('HVSISYDIPPT [GAB1_Y307]', 'phosphorylation enrichment', 1.18);

Note: attention shifts to another entry.
Query block: Suppose we examine the sequence TESALYGCTVL [KIAA1804_Y724] ; what phosphorylation enrichment value has been reported?
Result block: 0.885
